Listed below: Biodistribution Bone values for each entry.
System: LNCaP tumor-bearing male CB-17 SCID mice
experimentDescription: Biodistribution 1 h p.i. with competition (co-injection of 2-PMPA)
Format: in vivo
testContext: co-injected with 2-PMPA (8 mg/kg), n = 3
Write down the numeric answer in % ID/g and omit the unit.

Solved cases (3 shown):
CC(C)(C)[Si]([18F])(c1ccc(C(=O)NC[C@H](NC(=O)CC[C@H](C(=O)O)N2CCN(CC(=O)[O-])CCN(CC(=O)[O-])CCN(CC(=O)[O-])CC2)C(=O)N[C@H](CCCCNC(=O)CCC(=O)NCCC[C@@H](NC(=O)CC[C@H](NC(=O)N[C@@H](CCC(=O)O)C(=O)O)C(=O)O)C(=O)O)C(=O)O)cc1)C(C)(C)C.[Ga+3] [[^18F, ^natGa]rhPSMA-7.2]: 0.57
CC(C)(C)[Si]([18F])(c1ccc(C(=O)NC[C@H](NC(=O)CC[C@@H](C(=O)O)N2CCN(CC(=O)[O-])CCN(CC(=O)[O-])CCN(CC(=O)[O-])CC2)C(=O)N[C@H](CCCCNC(=O)CCC(=O)NCCC[C@@H](NC(=O)CC[C@H](NC(=O)N[C@@H](CCC(=O)O)C(=O)O)C(=O)O)C(=O)O)C(=O)O)cc1)C(C)(C)C.[Ga+3] [[^18F, ^natGa]rhPSMA-7.4]: 1.0
CC(C)(C)[Si]([18F])(c1ccc(C(=O)NC[C@@H](NC(=O)CC[C@H](C(=O)O)N2CCN(CC(=O)[O-])CCN(CC(=O)[O-])CCN(CC(=O)[O-])CC2)C(=O)N[C@H](CCCCNC(=O)CCC(=O)NCCC[C@@H](NC(=O)CC[C@H](NC(=O)N[C@@H](CCC(=O)O)C(=O)O)C(=O)O)C(=O)O)C(=O)O)cc1)C(C)(C)C.[Ga+3] [[^18F, ^natGa]rhPSMA-7.1]: 0.33

Exam item: So what Biodistribution Bone did CC(C)(C)[Si]([18F])(c1ccc(C(=O)NC[C@@H](NC(=O)CC[C@@H](C(=O)O)N2CCN(CC(=O)[O-])CCN(CC(=O)[O-])CCN(CC(=O)[O-])CC2)C(=O)N[C@H](CCCCNC(=O)CCC(=O)NCCC[C@@H](NC(=O)CC[C@H](NC(=O)N[C@@H](CCC(=O)O)C(=O)O)C(=O)O)C(=O)O)C(=O)O)cc1)C(C)(C)C.[Ga+3] [[^18F, ^natGa]rhPSMA-7.3] get with LNCaP tumor-bearing male CB-17 SCID mice?
Marked response: 0.34

###

Test system: LNCaP tumor-bearing male CB-17 SCID mice
experimentDescription: Biodistribution 1 h p.i.
Format: in vivo
Listed below: Biodistribution Intestine values for each entry.
Write down the numeric answer in % ID/g and omit the unit.

Solved cases (2 shown):
CC(C)(C)[Si]([18F])(c1ccc(C(=O)NC[C@@H](NC(=O)CC[C@@H](C(=O)O)N2CCN(CC(=O)[O-])CCN(CC(=O)[O-])CCN(CC(=O)[O-])CC2)C(=O)N[C@H](CCCCNC(=O)CCC(=O)NCCC[C@@H](NC(=O)CC[C@H](NC(=O)N[C@@H](CCC(=O)O)C(=O)O)C(=O)O)C(=O)O)C(=O)O)cc1)C(C)(C)C.[Ga+3] [[^18F, ^natGa]rhPSMA-7.3]: 0.35
CC(C)(C)[Si]([18F])(c1ccc(C(=O)NC[C@H](NC(=O)CC[C@H](C(=O)O)N2CCN(CC(=O)[O-])CCN(CC(=O)[O-])CCN(CC(=O)[O-])CC2)C(=O)N[C@H](CCCCNC(=O)CCC(=O)NCCC[C@@H](NC(=O)CC[C@H](NC(=O)N[C@@H](CCC(=O)O)C(=O)O)C(=O)O)C(=O)O)C(=O)O)cc1)C(C)(C)C.[Ga+3] [[^18F, ^natGa]rhPSMA-7.2]: 0.18

Consider the additional molecule presented here.
Exam item: Could you share which Biodistribution Intestine value was measured for CC(C)(C)[Si]([18F])(c1ccc(C(=O)NC[C@@H](NC(=O)CC[C@H](C(=O)O)N2CCN(CC(=O)[O-])CCN(CC(=O)[O-])CCN(CC(=O)[O-])CC2)C(=O)N[C@H](CCCCNC(=O)CCC(=O)NCCC[C@@H](NC(=O)CC[C@H](NC(=O)N[C@@H](CCC(=O)O)C(=O)O)C(=O)O)C(=O)O)C(=O)O)cc1)C(C)(C)C.[Ga+3] [[^18F, ^natGa]rhPSMA-7.1] ?
Marked response: 0.30

These data points were gathered from paper PMC7721954.
